- Target or test system: T1, mouse DLL4 extracellular domain (mouse, UniProt Q9JI71 27-532)
- T1 construct: extracellular domain; also called muDLL4 ECD; murine DLL4
- T1 sequence (Q9JI71 27-532): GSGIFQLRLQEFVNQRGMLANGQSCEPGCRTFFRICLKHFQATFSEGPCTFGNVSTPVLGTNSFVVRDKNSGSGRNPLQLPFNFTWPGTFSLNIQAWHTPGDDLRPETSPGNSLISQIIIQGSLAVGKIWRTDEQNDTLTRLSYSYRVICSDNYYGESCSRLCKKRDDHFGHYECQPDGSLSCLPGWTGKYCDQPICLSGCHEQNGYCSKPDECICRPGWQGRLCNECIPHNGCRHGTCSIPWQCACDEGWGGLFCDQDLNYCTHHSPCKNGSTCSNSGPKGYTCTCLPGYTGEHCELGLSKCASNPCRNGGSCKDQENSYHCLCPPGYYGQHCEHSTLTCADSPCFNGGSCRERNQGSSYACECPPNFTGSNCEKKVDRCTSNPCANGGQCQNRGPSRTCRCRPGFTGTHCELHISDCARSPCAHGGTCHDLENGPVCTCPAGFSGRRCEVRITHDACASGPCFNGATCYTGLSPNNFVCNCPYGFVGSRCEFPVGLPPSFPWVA
- Experiment: SPR (Biacore)
Reported endpoint: kon (M⁻¹ s⁻¹)
Please reply with the bare figure in M⁻¹ s⁻¹ and do not write the unit itself.

Noted for h1A11.B4 (antibody, V domains shown, also called h1A11VH.1 / h1A11.B4 VL) VH: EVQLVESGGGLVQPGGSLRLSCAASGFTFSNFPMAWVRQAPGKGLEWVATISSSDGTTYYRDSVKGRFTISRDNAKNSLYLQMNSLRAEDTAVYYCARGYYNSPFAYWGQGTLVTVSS VL: DIQMTQSPSSLSASVGDRVTITCRASQDIYYNLAWYQQKPGKAPKLLIFDTNILADGVPSRFSGSGSGTDFTLTISSLQPEDFATYFCQQYDYVPPTFGQGTKLEIK : its kon reads 479000

Noted for h1A11.C6 (antibody, V domains shown, also called h1A11.C6 VH / h1A11VL.1) VH: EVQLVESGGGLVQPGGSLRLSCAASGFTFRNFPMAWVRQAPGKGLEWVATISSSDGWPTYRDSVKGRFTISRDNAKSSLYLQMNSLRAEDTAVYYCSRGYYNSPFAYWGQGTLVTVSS VL: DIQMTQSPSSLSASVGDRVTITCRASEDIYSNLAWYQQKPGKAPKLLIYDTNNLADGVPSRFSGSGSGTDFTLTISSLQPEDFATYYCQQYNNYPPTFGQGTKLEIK : its kon reads 203000

--- query ---
Noted for h1A11.E12 (antibody, V domains shown, also called h1A11.E12 VH / h1A11.E12 VL) VH: EVQLVESGGGLVQPGGSLRLSCAASGFTFRYFPMAWVRQAPGKGLEWVATISGSDEWPNYRDSVKGRFTISRDNAKNSLYLQMNSLRAEDTAVYYCARGYYNSPFAFWGQGTLVTVSS VL: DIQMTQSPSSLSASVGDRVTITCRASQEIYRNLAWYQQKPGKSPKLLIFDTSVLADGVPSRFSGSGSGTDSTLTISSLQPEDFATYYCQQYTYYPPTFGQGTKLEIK : its kon reads 156000
